Sourced from ChEMBL document CHEMBL4145696

- procedure_summary: Half life in mouse liver microsomes in presence of NADPH regeneration system
Measured t1/2 accompanies every entry in the list below.
measured_parameter: t1/2 (h)

[[record]]
given_smiles = "COc1cc(C(=O)c2c[nH]c(-c3c[nH]c4ccccc34)n2)cc2c1OC=CO2"
measured_number = 1.42

[[record]]
given_smiles = "COc1cc(C(=O)c2c[nH]c(-c3c[nH]c4ccccc34)n2)cc2c1OCCO2"
measured_number = 2.03

[[record]]
given_smiles = "COc1cc(C(=O)c2c[nH]c(-c3c[nH]c4ccccc34)n2)cc2c1OCO2"
measured_number = 0.82

[[record]]
given_smiles = "O=C(c1ccc2c(c1)OCO2)c1c[nH]c(-c2c[nH]c3ccccc23)n1"
measured_number = 2.28

[[record]]
given_smiles = "O=C(c1ccc2c(c1)OCCO2)c1c[nH]c(-c2c[nH]c3ccccc23)n1"
measured_number = 0.37

